- System: LOC_OS01G48390-cb002
- measurementNotes: thermal shift delta Tm vs DMSO control; higher = stronger stabilization (binding);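 note: purified Escherichia coli-expressed rice kinase domain construct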
- measurementConditions: 12.5 µM; protein concentration 2 µM
Lab note: anything with thermal shift delta Tm at or over 0.6 °C counts as fulfilled; the rest go in not fulfilled.

compound: C=CC(=O)Nc1cccc(Oc2nc(Nc3ccc(N4CCN(C)CC4)cc3OC)ncc2Cl)c1
classLabel: fulfilled
--
compound: Cc1cc(C(C)Nc2ccccc2)c2nc(N3CCOCC3)cc(=O)n2c1 (centres undefined)
classLabel: fulfilled
--
compound: CCn1c2ccccc2c2cc(Nc3ccnc(NCCCN4CCOCC4)n3)ccc21
classLabel: fulfilled
--
compound: COCCNCc1ccc(-c2cc3nccc(Oc4ccc(NC(=O)C5(C(=O)Nc6ccc(F)cc6)CC5)cc4F)c3s2)nc1
classLabel: fulfilled
--
compound: CNC(=O)c1cc(Oc2ccc(NC(=O)Nc3cc(C(C)(C)C)nn3-c3ccc4ncccc4c3)c(F)c2)ccn1
classLabel: fulfilled
--
compound: Cc1ccc(NC(=O)c2cccc(N(C)C)c2)cc1NC(=O)c1ccc(O)cc1
classLabel: fulfilled
--
compound: N#Cc1ccc2ncnc(NCCc3ccccc3)c2c1
classLabel: not fulfilled
--
compound: Cn1sc(=O)n(Cc2ccccc2)c1=O
classLabel: fulfilled
--
compound: CC#CC(=O)Nc1ccc2ncnc(Nc3cccc(Br)c3)c2c1
classLabel: fulfilled
--
compound: C[S+]([O-])c1ccc(-c2nc(-c3ccc(F)cc3)c(-c3ccncc3)[nH]2)cc1 (centres undefined)
classLabel: not fulfilled
--
compound: c1cncc(CN2CCC(n3ncc4c(N5CCOCC5)nc(-c5ccc6[nH]ccc6c5)nc43)CC2)c1
classLabel: not fulfilled
--
compound: NC(=O)c1cnc2[nH]ccc2c1N[C@@H]1[C@@H]2CC3C[C@H]1C[C@@](O)(C3)C2
classLabel: fulfilled
--
compound: CC1(C)C=Cc2c(ccc3c2OC[C@@H](c2ccc(O)cc2O)C3)O1
classLabel: fulfilled
--
compound: Cc1[nH]c(/C=C2\C(=O)Nc3ccccc32)c(C)c1CCC(=O)O [Orantinib (TSU-68, SU6668)]
classLabel: fulfilled
--
compound: CCN1/C(=C/C(C)=O)Sc2ccc(OC)cc21
classLabel: not fulfilled
--
compound: COc1cc2ncnc(Nc3cccc(Cl)c3)c2cc1OC
classLabel: fulfilled
--
compound: CN(C)CCCn1cc(C2=C(c3c[nH]c4ccccc34)C(=O)NC2=O)c2ccccc21
classLabel: not fulfilled
--
compound: O=C1c2ccc(Nc3ccc(F)cc3F)cc2CCc2ccc(OC[C@H](O)CO)cc21 [Skepinone-L]
classLabel: not fulfilled
--
compound: Cc1cccc(Nc2nc(NC3CCCCC3N)ncc2C(N)=O)c1 (centres undefined)
classLabel: not fulfilled

###

- Tested on: LOC_OS06G16330-cb003
- Sequence (as listed by the source): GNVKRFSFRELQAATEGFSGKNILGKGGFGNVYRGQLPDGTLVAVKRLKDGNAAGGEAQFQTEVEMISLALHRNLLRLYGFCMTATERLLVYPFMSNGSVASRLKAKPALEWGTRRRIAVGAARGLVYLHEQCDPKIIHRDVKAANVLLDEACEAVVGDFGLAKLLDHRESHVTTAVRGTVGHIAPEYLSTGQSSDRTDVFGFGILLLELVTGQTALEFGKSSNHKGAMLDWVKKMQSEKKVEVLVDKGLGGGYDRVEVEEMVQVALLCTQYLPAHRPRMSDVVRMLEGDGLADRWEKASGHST
- measurementNotes: thermal shift delta Tm vs DMSO control; higher = stronger stabilization (binding)
- measurementConditions: 12.5 µM; protein concentration 2 µM
assayEndpoint: thermal shift delta Tm

compound: C[C@@H](Oc1ccc2[nH]nc(/C=C/c3cnn(CCO)c3)c2c1)c1c(Cl)cncc1Cl
experimentalTarget: LOC_OS06G16330-cb003
assayEndpoint: thermal shift delta Tm
reading: 15.1 °C

compound: C=CC(=O)N1CCC(Oc2cc3c(Nc4ccc(Cl)c(Cl)c4F)ncnc3cc2OC)CC1 [Poziotinib (HM781-36B)]
experimentalTarget: LOC_OS06G16330-cb003
assayEndpoint: thermal shift delta Tm
reading: 8.31 °C

compound: O=C(O)c1ccc2c3c1cccc3c(=O)n1c3ccccc3nc21
experimentalTarget: LOC_OS06G16330-cb003
assayEndpoint: thermal shift delta Tm
reading: 4.49 °C

compound: O=C(NOCC(O)CO)c1cc(Br)c(F)c(F)c1Nc1ccc(I)cc1F (configuration not stated)
experimentalTarget: LOC_OS06G16330-cb003
assayEndpoint: thermal shift delta Tm
reading: 0.65 °C

compound: CCN1/C(=C/C(C)=O)Sc2ccc(OC)cc21
experimentalTarget: LOC_OS06G16330-cb003
assayEndpoint: thermal shift delta Tm
reading: -0.18 °C

compound: CCn1c(=O)c(-c2ccc(-c3cncs3)cc2Cl)cc2cnc(Nc3ccc(N4CCN(C)CC4)cc3)nc21
experimentalTarget: LOC_OS06G16330-cb003
assayEndpoint: thermal shift delta Tm
reading: -0.19 °C

compound: Cc1ccc(NC(=O)Nc2cc(C(F)(F)F)ccc2F)cc1Nc1ccc2c(c1)NC(=O)/C2=C\c1ccc[nH]1
experimentalTarget: LOC_OS06G16330-cb003
assayEndpoint: thermal shift delta Tm
reading: 1.54 °C

compound: COc1ccc(Cl)cc1NC(=O)Nc1cc(C)nc2ccccc12
experimentalTarget: LOC_OS06G16330-cb003
assayEndpoint: thermal shift delta Tm
reading: 0.31 °C

compound: CCNC(=O)C#Cc1ccc2c(C(=Nc3ccc(CN(C)C)cc3)c3ccccc3)c(O)[nH]c2c1
experimentalTarget: LOC_OS06G16330-cb003
assayEndpoint: thermal shift delta Tm
reading: 1.85 °C

compound: CN1CCC(CNc2ccc3ncc(-c4cccc(OC(F)(F)F)c4)n3n2)CC1 [SGI-1776 free base]
experimentalTarget: LOC_OS06G16330-cb003
assayEndpoint: thermal shift delta Tm
reading: 3.37 °C

compound: Cc1cnc(Nc2ccc(OCCN3CCCC3)cc2)nc1Nc1cccc(S(=O)(=O)NC(C)(C)C)c1
experimentalTarget: LOC_OS06G16330-cb003
assayEndpoint: thermal shift delta Tm
reading: 4.38 °C

compound: O=C1NC(=O)[C@@H](c2cn3c4c(cccc24)CCC3)[C@@H]1c1c[nH]c2ccccc12 [Tivantinib (ARQ 197)]
experimentalTarget: LOC_OS06G16330-cb003
assayEndpoint: thermal shift delta Tm
reading: 0.29 °C

compound: Cc1cc(Nc2cc(CN3CCOCC3)c3nc(C)c(Cc4ccc(Cl)cc4F)n3n2)n[nH]1
experimentalTarget: LOC_OS06G16330-cb003
assayEndpoint: thermal shift delta Tm
reading: 9.97 °C

compound: Nc1nc(N)c(N=O)c(OCC2CCCCC2)n1
experimentalTarget: LOC_OS06G16330-cb003
assayEndpoint: thermal shift delta Tm
reading: 2.17 °C

compound: FC(F)c1nc2ccccc2n1-c1nc(N2CCOCC2)nc(N2CCOCC2)n1
experimentalTarget: LOC_OS06G16330-cb003
assayEndpoint: thermal shift delta Tm
reading: 0.49 °C

compound: CC1(C)CNc2cc(NC(=O)c3cccnc3NCc3ccncc3)ccc21 [Motesanib Diphosphate (AMG-706)]
experimentalTarget: LOC_OS06G16330-cb003
assayEndpoint: thermal shift delta Tm
reading: -0.19 °C

compound: C1=N/C2=N/c3ccc(OCCN4CCCC4)c(c3)COC/C=C/COCc3cccc(c3)C(=C1)N2 [Pacritinib (SB1518)]
experimentalTarget: LOC_OS06G16330-cb003
assayEndpoint: thermal shift delta Tm
reading: 10.1 °C

compound: C=CC(=O)Nc1cccc(Oc2nc(Nc3ccc(N4CCN(C)CC4)cc3OC)ncc2Cl)c1
experimentalTarget: LOC_OS06G16330-cb003
assayEndpoint: thermal shift delta Tm
reading: -0.17 °C

compound: Oc1c2ccccc2c2c3c(cccc13)N=N2
experimentalTarget: LOC_OS06G16330-cb003
assayEndpoint: thermal shift delta Tm
reading: 5.84 °C

compound: S=C(NCc1ccc2c(c1)OCO2)N1CCN(c2ncnc3c2oc2ccccc23)CC1
experimentalTarget: LOC_OS06G16330-cb003
assayEndpoint: thermal shift delta Tm
reading: 1.01 °C

compound: Cc1cc(Nc2cc(N3CCN(C)CC3)nc(/C=C/c3ccccc3)n2)n[nH]1
experimentalTarget: LOC_OS06G16330-cb003
assayEndpoint: thermal shift delta Tm
reading: 5.06 °C

compound: CN(C)CCOc1ccc(-c2nc(-c3ccncc3)c(-c3ccc4c(c3)CC/C4=N\O)[nH]2)cc1
experimentalTarget: LOC_OS06G16330-cb003
assayEndpoint: thermal shift delta Tm
reading: -0.3 °C

compound: COc1cccc(-c2cc(=O)c3ccccc3o2)c1N
experimentalTarget: LOC_OS06G16330-cb003
assayEndpoint: thermal shift delta Tm
reading: -0.2 °C

compound: Cc1cc(C(C)Nc2ccccc2)c2nc(N3CCOCC3)cc(=O)n2c1 (configuration not stated)
experimentalTarget: LOC_OS06G16330-cb003
assayEndpoint: thermal shift delta Tm
reading: 0.32 °C

compound: CCC[C@H](NC(=O)/C(C#N)=C/c1cccc(Br)n1)c1ccccc1 [Degrasyn (WP1130)]
experimentalTarget: LOC_OS06G16330-cb003
assayEndpoint: thermal shift delta Tm
reading: -2.97 °C

compound: CCN(C)S(=O)(=O)Nc1ccc(F)c(C(=O)c2c[nH]c3ncc(-c4cnc(C5CC5)nc4)cc23)c1F
experimentalTarget: LOC_OS06G16330-cb003
assayEndpoint: thermal shift delta Tm
reading: 1.23 °C

compound: Cc1ccc(NC(=O)c2cccc(C(C)(C)C#N)c2)cc1Nc1ccc2ncn(C)c(=O)c2c1
experimentalTarget: LOC_OS06G16330-cb003
assayEndpoint: thermal shift delta Tm
reading: 0.8 °C

compound: CCCCCCCCCCCCCCCCOP(=O)([O-])OCC[N+](C)(C)C
experimentalTarget: LOC_OS06G16330-cb003
assayEndpoint: thermal shift delta Tm
reading: -5.12 °C

compound: C[C@@H](N)c1ccc(C(=O)Nc2ccnc3[nH]ccc23)cc1
experimentalTarget: LOC_OS06G16330-cb003
assayEndpoint: thermal shift delta Tm
reading: 2.93 °C

compound: CNC(=O)c1nn(C)c2c1C(C)(C)Cc1cnc(Nc3ccc(N4CCN(C)CC4)cc3)nc1-2
experimentalTarget: LOC_OS06G16330-cb003
assayEndpoint: thermal shift delta Tm
reading: 4.37 °C

compound: NC(=O)c1ncn([C@@H]2O[C@H](CO)[C@@H](O)[C@H]2O)c1N
experimentalTarget: LOC_OS06G16330-cb003
assayEndpoint: thermal shift delta Tm
reading: 0.02 °C

compound: O=C(Nc1nc2cccc(-c3ccc(CN4CCS(=O)(=O)CC4)cc3)n2n1)C1CC1
experimentalTarget: LOC_OS06G16330-cb003
assayEndpoint: thermal shift delta Tm
reading: 5.12 °C

compound: O=C1Nc2ccc(CN3C(=O)CSC3=O)cc2/C1=C/c1cc(CN2CCOCC2)c[nH]1
experimentalTarget: LOC_OS06G16330-cb003
assayEndpoint: thermal shift delta Tm
reading: 9.36 °C

compound: Cc1c(NC(=O)c2ccc(C(C)(C)C)cc2)cccc1-c1cn(C)c(=O)c(Nc2ccc(C(=O)N3CCOCC3)cc2)n1
experimentalTarget: LOC_OS06G16330-cb003
assayEndpoint: thermal shift delta Tm
reading: 0.07 °C

compound: CCS(=O)(=O)Nc1ccc2c(c1)/C(=C(/Nc1ccc(CN3CCCCC3)cc1)c1ccccc1)C(=O)N2
experimentalTarget: LOC_OS06G16330-cb003
assayEndpoint: thermal shift delta Tm
reading: 13.1 °C

compound: Cc1csc(-c2nnc(Nc3ccc(Oc4ncccc4-c4ccnc(N)n4)cc3)c3ccccc23)c1
experimentalTarget: LOC_OS06G16330-cb003
assayEndpoint: thermal shift delta Tm
reading: 3.12 °C

compound: CC(C)n1ncnc1-c1cn2c(n1)-c1ccc(O[C@@H](C)C(N)=O)cc1OCC2
experimentalTarget: LOC_OS06G16330-cb003
assayEndpoint: thermal shift delta Tm
reading: -0.02 °C
